The measurements presented in this section are drawn from the supplement of paper PMC10567573.

B1: SLC6A17 (parent)
chain: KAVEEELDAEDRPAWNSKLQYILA

# Variants of: B1
# Protocol Text: protein stability index of a GFP-peptide fusion (GPS, HEK-293T) (PSI 1-6); higher = more stable;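 further: lentivirally expressed fusions sorted by FACS into six bins by GFP to DsRed ratio, PSI derived from sequencing read proportions per bin multiplied by bin number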
# Condition Parameters: c terminus: a fixed tail appended
I would appreciate it if you labelled entries satisfied when protein stability index is 3 or higher, otherwise not satisfied.

Reference set, count: 3
Ordered Residues	Discrete Label
KAVEEQLDAEDRPAWNSKLQYILA [E6Q]	not satisfied
KAVESELDAEDRPAWNSKLQYILA [E5S]	not satisfied
KAVEEELDTEDRPAWNSKLQYILA [A9T]	not satisfied

Prompt: For this variant, is measured protein stability index 3 or higher? KAVEEERDAEDRPAWNSKLQYILA [L7R]
Response: satisfied

Prompt: Evaluate KAVEEELDAEDRPAWNSFLQYILA [K18F] : protein stability index at minimum 3?
Response: not satisfied

Prompt: Decide: is the reported value of protein stability index for KAVEEELDAEDRPIWNSKLQYILA [A14I] equal to or greater than 3?
Response: not satisfied

Prompt: Form field: protein stability index at least 3? Entry: KAVEEFLDAEDRPAWNSKLQYILA [E6F]
Response: not satisfied

Prompt: Form field: protein stability index at least 3? Entry: KRVEEELDAEDRPAWNSKLQYILA [A2R]
Response: not satisfied

Prompt: Please tell me: is the variant KAVAEELDAEDRPAWNSKLQYILA [E4A] at or over 3 in terms of protein stability index?
Response: not satisfied

Prompt: Evaluate KAVEEELDAEDRSAWNSKLQYILA [P13S] : protein stability index at minimum 3?
Response: not satisfied

Prompt: Entry KAVEEELDVEDRPAWNSKLQYILA [A9V] : is its protein stability index no less than 3?
Response: satisfied
